test: folding stability dG unfold from trypsin proteolysis; higher = more stable
Endpoint label: folding stability dG unfold (kcal/mol)
# output: bare number, implied unit kcal/mol

Please report the measured folding stability dG unfold for SAGMTFTTVTVERPLGSPEGKPVSLEEVEEYAKKVAEELEPNGFPVENITIELLPDGTAVITMTIKKPLSAG [r14_470_JUSTAS]
2.03

Please report the measured folding stability dG unfold for SAGGSAKKTYIIKIPVKEIVVKDKKTGKYKPISAEELAKLLEEKTGLKVEIVEVKDGYIVIKVKEKSAGGSA [r15_55_TrROS_Hall]
2.26

Please report the measured folding stability dG unfold for SAPNYVLVIKIKSTNTPYYIPVPEDVEIVVKKNKNGEITAVVKVKDPETGEYFVITFSGDAKIDKIEPVPSA [r9_467_TrMRF]
2.21

Please report the measured folding stability dG unfold for SAGGKYTFTPAPPNSESEVVKKAEELKKKLAEEPGVDKKIEIEIKPSPDGSLTIKVTFSTGTYDAAASAGGS [r16_356_JUSTAS]
0.514

Please report the measured folding stability dG unfold for SAGGSAGGMNKIKVTTSVTTFEETVLAGNKTFTVTLLKKTTTITDPNSSKVTTITETKSPEELSSAGGSAGG [r6_752_JUSTAS]
0.294

Please report the measured folding stability dG unfold for SAGSIPELIREAFPSKVDRVEVTTEKLPNGTTKTTIKVYVDDPEVAERLAKEINELSGEPLENLTVTEESAG [r5_542_JUSTAS]
0.0676

Please report the measured folding stability dG unfold for SAEEEEVVEVELEIEIEMTPEELEELIEALRKAAEELGFEIEDIEIRVERKEDGTLRVTIRVKIRLPKPSAG [r14_109_TrROS_Hall]
3.68

----------
Assign folding stability dG unfold to each entry below.
assay: folding stability dG unfold (combined trypsin and chymotrypsin); higher = more stable
# output: bare number, implied unit kcal/mol

Please report the measured folding stability dG unfold for SAGGMIRITTEDGEELSEEELAELEEAIRKGDLDEAVKKIEELLRERFGKEIKIKVEVFFPPPPPPESAGGS [r8_48_TrROS_Hall]
3.59

Please report the measured folding stability dG unfold for SAGGMIVLEFPDGKIVFVEPVSEFTTPDGKKVRLVKVIVTDPLTGKSTIIEREVLPGGGVKEKVTPESAGGS [r16_651_JUSTAS]
1.49

Please report the measured folding stability dG unfold for SAGGSAGGKPVTVEVDIVVKPGDTIEFPPGAKVEIVEKKEVEVNGKKYQVFKIKVTLPPGEEALSAGGSAGG [r6_454_TrROS_Hall]
2.72

Please report the measured folding stability dG unfold for SAGGSAGGSASAPADETLTAELTSPESDERYTVLVTPEGMTAVDEAGRTTPLSPAVLVSVTAPSAGGSAGGS [r20_35_JUSTAS]
0.0934

----------
experiment: folding stability dG unfold (combined trypsin and chymotrypsin); higher = more stable
Assign folding stability dG unfold to each entry below.
# output: bare number, implied unit kcal/mol

Please report the measured folding stability dG unfold for SAGGSAGGEIVITLPNVKSKEEAKKAAEKLIEELKKKGIKDKTIKVTVIDEKTGKEYTFTIKLKSAGGSAGG [r6_237_TrROS_Hall]
4.14

Please report the measured folding stability dG unfold for SKKPDQPPKTVPIEIWVPLPPGQTPEWREMAEEFAEIFADELQQEGFKNVTVEVEPNKDGWVHIDAEVQVSA [r9_865_TrROS]
0.322

Please report the measured folding stability dG unfold for SAGGSAGGSSMKVEVTVEPVDPARGLYRVTITLYDPNSDTPLKTVPVLAESPEEIEAAILELLSAGGSAGGS [r12_26_JUSTAS]
2.67

Please report the measured folding stability dG unfold for SAGGSAGDKVVTVTATFTTTDPNGNEITIIAPITFLNGEGTAVIDAKAFNPTGELIAEATITVPIGSAGGSA [r15_967_TrMRF]
2.07

Please report the measured folding stability dG unfold for SAGGSAGGSASMTITLPGMSLEEAKAAAEAHPDHPVLLETPEGRLIEITPEGVVTVRPLPESAGGSAGGSAG [r3_269_JUSTAS]
-0.937

Please report the measured folding stability dG unfold for SAGGALEKILEAIENAPTSVPEVTVEIELPTGTLKATITNKGKPVLITIELTHPDGSKSTITLTFSLSAGGS [r16_642_TrMRF]
3.78

Please report the measured folding stability dG unfold for SAGKKKFITIVIPIEKKEKLKKAVEELKKKFNAKELAVIPNPEKNEIIEVVVKETKDAIIKIVIIAKESAGG [r19_262_TrMRF]
1.45

----------
Assign folding stability dG unfold to each entry below.
assay: folding stability dG unfold (combined trypsin and chymotrypsin); higher = more stable

Please report the measured folding stability dG unfold for SAGGMSIRELLKEKGIPIKVENEPTDGRPRMKITIQDNDKPVKIDMPMDDPERMIRDAAKELGLKPISAGGS [r8_226_TrROS]
< -1 kcal/mol

Please report the measured folding stability dG unfold for SAGGKFDIMVKVEPPDGKEEELPIKFDSPEEIIEEARAIAEQHGPGDKLKVEIYYPGTGRPIEFEIPSAGGS [r8_107_TrROS]
0.336 kcal/mol

Please report the measured folding stability dG unfold for SAGGSAGGSDFKPVLVIELDDKTVLVFELEDGTVLVLAENEIALIPASIPAEHFPEDAKLDLDSAGGSAGGS [r12_594_TrMRF]
1.85 kcal/mol

Please report the measured folding stability dG unfold for ETIYLSSSNPEEVIKALKEAASKGKTVVVEANPEFFKEFIAQGFKVEKILKIEPIPGGDGYRAEIKISPGGS [r1_173_TrMRF]
1.97 kcal/mol

Please report the measured folding stability dG unfold for SMLTITDENGNTITLPAAGEPVTLTVEIEVDGYTVTVEITFDADTKKITIKVEVTNPNGEKQTFTFTFDLSA [r9_1073_TrROS_Hall]
3.84 kcal/mol

Please report the measured folding stability dG unfold for SASLPEKLAKELLPEAKEIKILEVKTEPDPNSDRPVTTVKMEAELEGGKKKLTVTLSPGPLKIKVTPEPSAG [r14_397_JUSTAS]
< -1 kcal/mol

Please report the measured folding stability dG unfold for SAGGSAGGSMKPEVVEEIIKKAEEEGYEIDSVTVNPETNVPVIHFNWPSPELAEKDPELREAASAGGSAGGS [r12_482_TrMRF]
< -1 kcal/mol

----------
assay: folding stability dG unfold (combined trypsin and chymotrypsin); higher = more stable
Assign folding stability dG unfold to each entry below.
# output: bare number, implied unit kcal/mol

Please report the measured folding stability dG unfold for SAPNIEIDYNKDNGMITIRLPGTGVEYMIPMPDGQLMAIDIEVKPDPDGKRKISIEIYFPDGKEHEFEISAG [r14_675_TrROS]
2.3

Please report the measured folding stability dG unfold for SAGGSAGGSAGGMVRITVEVDGKTYELVVEGMSLEEIEELLKKPNIKKAKVEPLSEEELKSAGGSAGGSAGG [r7_502_TrROS_Hall]
2.32

Please report the measured folding stability dG unfold for SDPLGTPVPLTYRVLLTFPGVSRPFLGPGGVVRSVSVNPTVLVPGPANSYPAVRELAEPLGLSVSVTPLASA [r9_1209_TrMRF]
-0.871

Please report the measured folding stability dG unfold for SAGGSAGGSAGKIEIKVVKKTPNYVYYEIRFEETKKTIIVKAKSKEDAEEAAKKLLKELKSAGGSAGGSAGG [r11_848_TrROS_Hall]
2.62

----------
assay: folding stability dG unfold from trypsin proteolysis; higher = more stable
Endpoint label: folding stability dG unfold

Please report the measured folding stability dG unfold for SAGGSPIISTEKSSSGVTTITFPDGTVVTEVTTPLPDGTVLTTTTVTPPNAPVSTTTTTDPVPPGLPSAGGS [r16_211_JUSTAS]
0.775 kcal/mol

Please report the measured folding stability dG unfold for SAGGSVRVETEFERLPDGPIVVRVRITLPNGETLEFTAVYYPEPSGIPMFVPEPVPPNAIEGIDIKVSAGGS [r16_95_TrMRF]
2.55 kcal/mol

Please report the measured folding stability dG unfold for SAGTIAKEIAEKLGLPGLKVKDVKFEPDPDGPIKEIEITVEFPNGRYWKIDIRYDPGNIVIDIEPVPPSAGG [r19_392_TrROS]
1.98 kcal/mol

Please report the measured folding stability dG unfold for SAGGAFEMSNEYWFPDGFRVKLKVEVYPNGMFMLDLEIEPIPPPPPIKIEKDPDGEYKYDPNGQPQKDSAGG [r13_151_TrROS]
2.58 kcal/mol

----------
test: folding stability dG unfold (combined trypsin and chymotrypsin); higher = more stable
Endpoint label: folding stability dG unfold (kcal/mol)
# output: bare number, implied unit kcal/mol

Please report the measured folding stability dG unfold for SAGGSPIYVRIEWEPPGNGKEREKEIPIKNVDSPDQLVDEAKEEAMKDGGPIKDIEVYDPDDGRPFPLSAGG [r13_771_TrROS]
-0.192

Please report the measured folding stability dG unfold for PEKVILVEVPAGEELTEEELKELAEALGLEVEIEKVKVTVTVTVEVTLPDGKKVKVETTETRTVVLVTVKDS [r1_238_TrROS_Hall]
3.16

Please report the measured folding stability dG unfold for SAGGSAGGSAGGMKPQPIKVTVERHFPDGTVELEELVFPSPEEVEKFLKENPDWTVVEVESAGGSAGGSAGG [r11_802_JUSTAS]
3.4

Please report the measured folding stability dG unfold for PPTSPEFRKALENIKKVDIEIEPYPNDGMVRMSIELKFPDKPVEIDIHYQYDPDGKINGMWARLDGKWIPIS [r1_274_TrROS]
1.85

Please report the measured folding stability dG unfold for SAGGSAGGSAGGSLEAIRKAIEEAQKNGHTVPISVRHPNGKDFTFEIEIQVVKPPPDEKSAGGSAGGSAGGS [r10_573_TrROS]
1.46

Please report the measured folding stability dG unfold for SAGGSASMTIVPVKSEEELEAYIKTKNPKVFLLPLPDGTELVVKVNVDDPSKIEKVSLSKPEEILLSAGGSA [r15_11_JUSTAS]
0.622

Please report the measured folding stability dG unfold for SAGSGVILRTPEGKYVPLSALSEEEIKTAIEDPLSPAPPVTVEVTVTSVRLPVPRTVTTTEVVVTVLGSAGG [r19_232_JUSTAS]
0.115

FYI, the data here is from the supplement of paper PMC12764529.
